molecular target: mGluR5 receptor (Sus scrofa, UniProt I3LUI7); experiment: Affinity for the mGluR5 receptor: inhibition of 3[H]-MPEP binding in pig brain homogenate; settings: 10 μM compound, 5 nM 3[H]-MPEP, read-out: mGluR5 receptor inhibition of ^3[H]-MPEP binding [10 μM] in % at a concentration of the example compounds of 10 μM
Sequence (I3LUI7 19-1212): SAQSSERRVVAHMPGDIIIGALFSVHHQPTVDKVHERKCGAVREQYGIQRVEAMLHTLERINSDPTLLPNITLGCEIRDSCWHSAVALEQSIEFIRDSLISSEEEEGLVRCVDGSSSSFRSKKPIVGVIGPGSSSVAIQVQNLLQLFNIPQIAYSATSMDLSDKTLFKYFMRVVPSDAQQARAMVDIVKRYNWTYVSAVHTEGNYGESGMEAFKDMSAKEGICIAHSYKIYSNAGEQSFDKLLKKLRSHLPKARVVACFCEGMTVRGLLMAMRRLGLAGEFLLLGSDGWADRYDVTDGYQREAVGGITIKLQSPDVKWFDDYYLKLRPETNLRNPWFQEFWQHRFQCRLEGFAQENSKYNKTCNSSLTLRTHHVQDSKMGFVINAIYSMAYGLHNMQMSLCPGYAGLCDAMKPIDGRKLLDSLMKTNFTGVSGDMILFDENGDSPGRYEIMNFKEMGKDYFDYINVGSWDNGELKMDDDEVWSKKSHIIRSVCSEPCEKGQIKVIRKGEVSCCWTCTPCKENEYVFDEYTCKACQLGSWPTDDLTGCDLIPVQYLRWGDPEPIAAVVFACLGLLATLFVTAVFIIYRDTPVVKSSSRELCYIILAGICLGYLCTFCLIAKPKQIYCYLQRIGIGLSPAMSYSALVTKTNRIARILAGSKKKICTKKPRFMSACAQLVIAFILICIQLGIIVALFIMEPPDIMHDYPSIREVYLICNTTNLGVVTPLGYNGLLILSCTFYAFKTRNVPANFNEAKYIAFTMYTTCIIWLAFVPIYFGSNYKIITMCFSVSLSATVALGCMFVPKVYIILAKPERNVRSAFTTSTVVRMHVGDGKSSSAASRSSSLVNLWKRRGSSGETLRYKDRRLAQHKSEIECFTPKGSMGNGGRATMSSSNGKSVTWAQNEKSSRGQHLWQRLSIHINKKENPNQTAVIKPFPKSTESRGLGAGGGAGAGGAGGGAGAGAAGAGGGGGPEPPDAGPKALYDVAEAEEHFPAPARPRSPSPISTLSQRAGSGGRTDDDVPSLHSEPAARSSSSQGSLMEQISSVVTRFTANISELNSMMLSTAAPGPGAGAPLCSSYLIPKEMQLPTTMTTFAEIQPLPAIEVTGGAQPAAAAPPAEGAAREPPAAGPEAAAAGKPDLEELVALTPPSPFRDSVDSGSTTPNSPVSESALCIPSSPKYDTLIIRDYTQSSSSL
Quick list: inhibition at 10 µM per entry.
The response must be a number in % with no trailing unit.

A selection of reference data follows.
[
  {
    "Compound": "C(#Cc1csc(-c2nc3c(OCc4ccccc4)cccn3c2NC2CCCC2)c1)c1ccccc1",
    "Study target": "mGluR5 receptor (Sus scrofa, UniProt I3LUI7)",
    "inhibition at 10 µM / %": 33
  },
  {
    "Compound": "Cc1ccn2c(NC(C)(C)CC(C)(C)C)c(-c3ccc(C#Cc4ccccn4)s3)nc2c1",
    "Study target": "mGluR5 receptor (Sus scrofa, UniProt I3LUI7)",
    "inhibition at 10 µM / %": 85
  },
  {
    "Compound": "Cc1ccc2nc(-c3ccc(C#Cc4ccccn4)s3)c(NC3CCCCC3)n2c1",
    "Study target": "mGluR5 receptor (Sus scrofa, UniProt I3LUI7)",
    "inhibition at 10 µM / %": 94
  },
  {
    "Compound": "Cc1cccn2c(Nc3ccc(F)cc3)c(-c3cccc(C#Cc4ccccn4)c3)nc12",
    "Study target": "mGluR5 receptor (Sus scrofa, UniProt I3LUI7)",
    "inhibition at 10 µM / %": 85
  },
  {
    "Compound": "Cc1ccc2nc(-c3ccc(C#Cc4ccccn4)s3)c(NC3CCCC3)n2c1",
    "Study target": "mGluR5 receptor (Sus scrofa, UniProt I3LUI7)",
    "inhibition at 10 µM / %": 85
  },
  {
    "Compound": "CC(C)(C)CC(C)(C)Nc1c(-c2ccc(C#Cc3ccccn3)o2)nc2cnccn12",
    "Study target": "mGluR5 receptor (Sus scrofa, UniProt I3LUI7)",
    "inhibition at 10 µM / %": 68
  }
]

Next, consider the following compound.
Which measured inhibition at 10 µM belongs to `Cc1ccc2nc(-c3ccc(C#Cc4ccccn4)s3)c(NC(C)(C)C)n2c1` , tested on mGluR5 receptor (Sus scrofa, UniProt I3LUI7)?
75
